B1: CPEB3 Ribozyme (parent)
chain: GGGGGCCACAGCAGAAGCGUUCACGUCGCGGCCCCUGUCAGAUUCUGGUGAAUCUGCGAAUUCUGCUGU

Variants of: B1
MEASUREMENT_PROTOCOL: self-cleavage, relative activity (ratio to wild type); higher = more cleavage; co-transcriptional
Some variants, each annotated with its measured self-cleavage.
Write no unit; give the number alone.

MUTANT	self-cleavage
G31C G41U	0.217

State its self-cleavage: A15U U44G
0.713

Please list self-cleavage recorded for the variant U43G G68C
0.902

Give reported self-cleavage value for G4U G14A
0.257

Give me measured self-cleavage, please, for this variant: G28A G65A
0.152

Dear colleague, please send me the reported self-cleavage for C34A U44A when you can.
0.511

Reference for the values: the RNAGym collection of RNA variant scans (doi:10.7554/elife.80360)
